- Assay: MTT cytotoxicity assay (CC50)
- Assay Conditions: chlorocebus sabaeus
Attribute Measured: CC50 at 144 h (µM)
Numbers only, in µM.

Fill in the blank: the reported CC50 at 144 h of CC(C)c1cc2c(cc1O)[C@@]1(C)CCC[C@@](C)(CN3C(=O)c4ccccc4C3=O)[C@@H]1CC2 [Compound 6, 18-(phthalimid-2-yl)ferruginol] is ____.
80.8

---

- Tested on: Vero-E6 cells
- Assay: Cytotoxicity CC100 in Vero-E6 cells (72 h)
- Assay Conditions: Vero-E6 cells, 72h
Attribute Measured: CC100 (100% cytotoxic concentration) (µg/mL)
Numbers only, in µg/mL.

Recorded results for 3 compounds are shown here.
| Compound | CC100 (100% cytotoxic concentration), µg/mL |
| --- | --- |
| COC(=O)[C@@]1(C)CCC[C@]2(C)c3cc(OC(C)=O)c(C(C)C)cc3CC[C@@H]12 [Compound 16b] | 25 |
| CC(C)c1cc2c(cc1O)[C@@]1(C)CCC[C@@](C)(C(=O)O)[C@@H]1CC2 [Compound 19a, 12-hydroxydehydroabietic acid] | 25 |
| CC(C)c1cc2c(cc1O)[C@@]1(C)CCC[C@@](C)(CO)[C@@H]1CC2 [Compound 20a, 18-hydroxyferruginol] | 50 |

For each entry beneath this line, provide reported CC100 (100% cytotoxic concentration).
1. CC(C)c1cc2c(cc1O)[C@@]1(C)CCC[C@](C)(CO)[C@@H]1CC2 [Compound 20b, 19-hydroxyferruginol]
2. COC(=O)[C@]1(C)CCC[C@]2(C)c3cc(OC(C)=O)c(C(C)C)cc3CC[C@@H]12 [Compound 16a]
3. COC(=O)[C@@]1(C)CCC[C@]2(C)c3cc(OC(C)=O)c(C(C)C)cc3C(=O)C[C@@H]12 [Compound 17b]
4. COC(=O)[C@]1(C)CCC[C@]2(C)c3cc(O)c(C(C)C)cc3C(=O)C[C@@H]12 [Compound 22a]

[25, 50, 50, 50]
